- STUDY TARGET: GST-Dm-Relish (Drosophila melanogaster, UniProt Q94527 99-473)
- Sequence: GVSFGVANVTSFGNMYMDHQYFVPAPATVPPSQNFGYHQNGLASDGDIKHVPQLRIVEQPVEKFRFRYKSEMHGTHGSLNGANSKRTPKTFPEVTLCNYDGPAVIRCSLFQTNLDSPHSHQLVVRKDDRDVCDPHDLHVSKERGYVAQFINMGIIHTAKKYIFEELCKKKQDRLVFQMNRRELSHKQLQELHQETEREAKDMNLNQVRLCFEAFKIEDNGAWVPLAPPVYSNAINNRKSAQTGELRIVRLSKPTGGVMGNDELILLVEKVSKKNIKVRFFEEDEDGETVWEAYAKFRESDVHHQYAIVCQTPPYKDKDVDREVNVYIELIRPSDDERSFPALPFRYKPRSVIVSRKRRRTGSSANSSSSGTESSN
- MEASUREMENT PROTOCOL: protein-binding microarray (PBM); PBM: ~300 nM protein, 6 mM HEPES pH 7.8, 80 mM KCl, 0.5 mM EDTA, 0.5 mM EGTA, 6% glycerol, 35 ng/ul poly-dIdC, 1% milk, 1 h, room temperature; Ap Aiptasia and Nv Nematostella (sea anemones) / Co Capsaspora / Aq Amphimedon (sponge) / Dm Drosophila / Hu human; RHD is the Rel homology domain; high values mean tight binding
- SETUP CONDITIONS: dsDNA, one strand shown
Some sequences, each annotated with its measured binding signal.

CHAIN	STUDY TARGET	binding signal / z-score
CCGATTAACATCAGGGATTCCACTGATGTTAATCGGGTCTTGATTCGCTTGACGCTGCTG	GST-Dm-Relish (Drosophila melanogaster, UniProt Q94527 99-473)	6.88
CCGATTAACATCACGGAATTCCCTGATGTTAATCGGGTCTTGATTCGCTTGACGCTGCTG	GST-Dm-Relish (Drosophila melanogaster, UniProt Q94527 99-473)	7.05
CCGATTAACATCAAGATACCCCCTGATGTTAATCGGGTCTTGATTCGCTTGACGCTGCTG	GST-Dm-Relish (Drosophila melanogaster, UniProt Q94527 99-473)	4.14
CCGATTAACATCAGGGATTCCAATGATGTTAATCGGGTCTTGATTCGCTTGACGCTGCTG	GST-Dm-Relish (Drosophila melanogaster, UniProt Q94527 99-473)	5.16
CCGATTAACATCACATGTTCCCCTGATGTTAATCGGGTCTTGATTCGCTTGACGCTGCTG	GST-Dm-Relish (Drosophila melanogaster, UniProt Q94527 99-473)	3.04
